Molecular target: Tyrosyl-DNA phosphodiesterase 1 (Homo sapiens)
Sequence (Q9NUW8 whole entry): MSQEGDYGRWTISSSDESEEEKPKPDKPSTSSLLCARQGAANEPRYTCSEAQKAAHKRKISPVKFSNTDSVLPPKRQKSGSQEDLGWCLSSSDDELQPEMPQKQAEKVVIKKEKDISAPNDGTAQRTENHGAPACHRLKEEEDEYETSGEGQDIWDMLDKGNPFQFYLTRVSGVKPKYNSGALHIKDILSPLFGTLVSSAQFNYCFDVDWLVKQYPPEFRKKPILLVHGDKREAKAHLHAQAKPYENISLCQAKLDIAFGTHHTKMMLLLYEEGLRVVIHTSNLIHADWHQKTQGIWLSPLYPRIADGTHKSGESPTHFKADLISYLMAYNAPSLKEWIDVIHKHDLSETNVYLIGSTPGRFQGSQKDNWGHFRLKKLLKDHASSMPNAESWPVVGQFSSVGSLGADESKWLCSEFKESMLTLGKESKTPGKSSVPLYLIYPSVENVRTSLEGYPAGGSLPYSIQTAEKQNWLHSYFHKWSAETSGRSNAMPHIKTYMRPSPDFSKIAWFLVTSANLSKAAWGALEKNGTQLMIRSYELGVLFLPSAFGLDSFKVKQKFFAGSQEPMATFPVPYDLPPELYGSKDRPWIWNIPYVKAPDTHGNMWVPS
Assay: Inhibition of recombinant Tdp1 (unknown origin) using 5'-([32P]-aac gtc agg gtc ttc c-tyrosine)-3' as substrate measured after 5 mins by electrophoresis method

{"columns": ["smiles", "measurement.target", "IC50"],
 "data": [
  ["CC(=O)C1=C(O)C=C2Oc3c4c(c(C)c(O)c3[C@@]2(C)C1=O)O/C(=C\\c1cc(Br)cc(Br)c1)C4=O", "Tyrosyl-DNA phosphodiesterase 1 (Homo sapiens)", "4 µM"]
]}

====

Biological target: Tyrosyl-DNA phosphodiesterase 1 (Homo sapiens)
Test: Inhibition of recombinant Tdp1 (unknown origin) using 5'-(5,6 FAM-aac gtc agg gtc ttc c-BHQ1)-3' as substrate measured every 55 secs for 8 mins by fluorimetric assay
Criterion: IC50 strictly less than 800 nM. Met: 1.0. Not met: 0.0.

{"columns": ["smiles", "group.label"],
 "data": [
  ["CC(=O)C1=C(O)C=C2Oc3c4c(c(C)c(O)c3[C@@]2(C)C1=O)O/C(=C\\c1cccnc1)C4=O", 1.0],
  ["CC(=O)C1=C(O)C=C2Oc3c4c(c(C)c(O)c3[C@@]2(C)C1=O)O/C(=C\\c1ccco1)C4=O", 0.0],
  ["CC(=O)C1=C(O)C=C2Oc3c4c(c(C)c(O)c3[C@@]2(C)C1=O)O/C(=C\\c1ccc(Cl)cc1)C4=O", 0.0],
  ["CC(=O)C1=C(O)C=C2Oc3c4c(c(C)c(O)c3[C@]2(C)C1=O)O/C(=C\\c1cc(C(C)(C)C)cc(C(C)(C)C)c1O)C4=O", 1.0],
  ["CC(=O)C1=C(O)C=C2Oc3c4c(c(C)c(O)c3[C@@]2(C)C1=O)O/C(=C\\c1ccc(O)cc1)C4=O", 0.0],
  ["CC(=O)C1=C(O)C=C2Oc3c4c(c(C)c(O)c3[C@@]2(C)C1=O)O/C(=C\\c1ccc(Br)s1)C4=O", 1.0],
  ["COc1ccccc1/C=C1\\Oc2c(C)c(O)c3c(c2C1=O)OC1=CC(O)=C(C(C)=O)C(=O)[C@@]13C", 1.0],
  ["CC(=O)C1=C(O)C=C2Oc3c4c(c(C)c(O)c3[C@@]2(C)C1=O)O/C(=C\\c1ccsc1)C4=O", 0.0],
  ["CC(=O)C1=C(O)C=C2Oc3c4c(c(C)c(O)c3[C@@]2(C)C1=O)O/C(=C\\c1ccc(F)cc1)C4=O", 0.0],
  ["COc1ccc(/C=C2\\Oc3c(C)c(O)c4c(c3C2=O)OC2=CC(O)=C(C(C)=O)C(=O)[C@@]24C)c(OC)c1OC", 1.0],
  ["CC(=O)C1=C(O)C=C2Oc3c4c(c(C)c(O)c3[C@@]2(C)C1=O)O/C(=C\\c1cc(Br)cc(Br)c1)C4=O", 1.0],
  ["CC(=O)C1=C(O)C=C2Oc3c4c(c(C)c(O)c3[C@@]2(C)C1=O)O/C(=C\\c1ccc[nH]1)C4=O", 0.0],
  ["CC(=O)C1=C(O)C=C2Oc3c4c(c(C)c(O)c3[C@@]2(C)C1=O)O/C(=C\\c1ccc(C)s1)C4=O", 0.0],
  ["CC(=O)C1=C(O)C=C2Oc3c4c(c(C)c(O)c3[C@@]2(C)C1=O)O/C(=C\\C1CCCCC1)C4=O", 0.0],
  ["CC(=O)C1=C(O)C=C2Oc3c4c(c(C)c(O)c3[C@]2(C)C1=O)O/C(=C\\c1ccc(Br)s1)C4=O", 1.0]
]}
